Tested on: U2OS
Assay: Multiplex assay against U2OS
Format: toxicity, cell-based
Details: human, 12 h, 10 µM, compound concentration 10 uM, replicate 2
Rule: YES for Population Mitotic Cells (%) not less than 9%, NO for anything less.

Example entries and their recorded answers appear below.
Cc1onc(-c2ccccc2Cl)c1C(=O)N(C)c1ccc(Cl)cc1; YES
CC(/C=C1\SC(=S)N(CCCC(=O)Nc2ccc(C(=O)O)c(O)c2)C1=O)=C\c1ccccc1; YES

Here's the next entry for you.
q: Hi team, for Cc1sc2c(c1C)C(c1ccc(Cl)cc1)=N[C@@H](CC(=O)NCCCCCCCCNC(=O)COc1cccc3c1C(=O)N(C1CCC(=O)NC1=O)C3=O)c1nnc(C)n1-2 (some centres undefined) , is the recorded Population Mitotic Cells (%) at or above 9%?
a: NO

Each recorded value in this set is attributed to ChEMBL document CHEMBL5058577.
